Please respond with reported IC50 for every item in the list.
molecular target: p300 HAT domain (residues 1287-1666) (Homo sapiens (Human), UniProt Q09472); assay: p300 HAT SPA assay (scintillation proximity assay, acetylation of biotinylated H3(1-21) peptide); format: biochemical; settings: p300 HAT domain; average of at least 2 replicate titrations; read-out: P300 HAT SPA IC50
Sequence (Q09472 1287-1666): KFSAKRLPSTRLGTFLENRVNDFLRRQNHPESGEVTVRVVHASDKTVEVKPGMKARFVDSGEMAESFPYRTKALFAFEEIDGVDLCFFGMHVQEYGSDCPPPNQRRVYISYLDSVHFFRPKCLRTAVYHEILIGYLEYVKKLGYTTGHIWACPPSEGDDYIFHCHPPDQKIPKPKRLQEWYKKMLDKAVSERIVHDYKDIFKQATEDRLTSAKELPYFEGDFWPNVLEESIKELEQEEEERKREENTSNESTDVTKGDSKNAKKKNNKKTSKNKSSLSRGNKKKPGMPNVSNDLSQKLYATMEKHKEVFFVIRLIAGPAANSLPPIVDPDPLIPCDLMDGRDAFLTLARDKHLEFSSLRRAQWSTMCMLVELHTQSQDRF
Numbers only here, please. The scale is µM.

### Prompt What does the record list as IC50 for N#Cc1ccc(CCNC(C(=O)c2cnn3cc(-c4cn[nH]c4)ccc23)c2ccccc2)cc1 (single isomer, unassigned) [99 Isomer 2] ?
### Response 0.0156

### Prompt Repeat with CC(CNC(C(=O)c1c[nH]c2cc(-c3cnn(C)c3)ccc12)c1ccccc1)c1ccc(Cl)cc1 (single isomer, unassigned) [91 Isomer 1]
### Response 3.73

### Prompt Repeat with O=C(c1n[nH]c2ccccc12)C(NCCc1ccc(Cl)cc1)c1ccccc1 (single isomer, unassigned) [47 Isomer 1]
### Response 4.8
